- test-target: high sensitivity α4(2)β2(3) nAChR (Homo sapiens, UniProt P17787+P43681)
- measurement-notes: Two-electrode voltage clamp in Xenopus oocytes, HS α4β2
- Assay type: cell-based
- settings: read-out: Peak Currents EC50; α4(2)β2(3)
pEC50: −log10 of the molar value.
test-readout: pEC50

Ic1cncc(OC[C@@H]2CCN2)c1    7.38

====

- test-target: low sensitivity α4(3)β2(2) nAChR (Homo sapiens, UniProt P17787+P43681)
- measurement-notes: Two-electrode voltage clamp in Xenopus oocytes, LS α4β2
- Format: cell-based
- settings: read-out: Peak Currents EC50; α4(3)β2(2)
test-readout: EC50

Ic1cncc(OC[C@@H]2CCN2)c1    37 nM

====

- test-target: low sensitivity α4(3)β2(2) nAChR (Homo sapiens, UniProt P17787+P43681)
- measurement-notes: Two-electrode voltage clamp in Xenopus oocytes, LS α4β2
- Format: cell-based
- settings: read-out: Net Charge EC50; α4(3)β2(2)
pEC50: −log10 of the molar value.
test-readout: pEC50

Ic1cncc(OC[C@@H]2CCN2)c1    7.60

====

- test-target: high sensitivity α4(2)β2(3) nAChR (Homo sapiens, UniProt P17787+P43681)
- measurement-notes: Two-electrode voltage clamp in Xenopus oocytes, HS α4β2
- Format: cell-based
- settings: read-out: Net Charge EC50; α4(2)β2(3)
pEC50: −log10 of the molar value.
test-readout: pEC50

Ic1cncc(OC[C@@H]2CCN2)c1 [5IA, 5-Iodo-A-85380]    7.21
